Measured T1/2 values are reported for all entries that follow.
molecular target: SARS-CoV-2 receptor-binding domain (amino acids 330-532), prototypical Wuhan/Victoria (SARS-CoV-2 (Wuhan/Victoria), UniProt P0DTC2 330-532); test: SPR, RBD binding kinetics
Kindly provide the numeric value in h only, without the unit symbol.

Known T1/2 results, listed for orientation:
1) C1-SUMO-H11-H4-Fc (Fc fusion, also called C1-GSGSGS-SUMO-GSGSGS-H11-H4) QVQLVESGGGLVQPGGSLRLSCAASGFTNDFYSIAWFRQAPGKEREGVSWLSVSDNTPTYVDSVKDRFTISRHNANNTVYLQMNMLKPEDTAIYYCAAGRFAGRDTWPSSYDYWGQGTQVTVSSGSGSGSDSEVNQEAKPEVKPEVKPETHINLKVSDGSSEIFFKIKKTTPLRRLMEAFAKRQGKEMDSLRFLYDGIRIQADQTPEDLDMEDNDIIEAHREQIGSGSGSQVQLVESGGGLMQAGGSLRLSCAVSGRTFSTAAMGWFRQAPGKEREFVAAIRWSGGSAYYADSVKGRFTISRDKAKNTVYLQMNSLKYEDTAVYYCAQTHYVSYLLSDYATWPYDYWGQGTQVTVSS :: 2.8
2) C1-SUMO-H3-Fc (Fc fusion, also called C1-GSGSGS-SUMO-GSGSGS-H3) QVQLVESGGGLVQPGGSLRLSCAASGFTNDFYSIAWFRQAPGKEREGVSWLSVSDNTPTYVDSVKDRFTISRHNANNTVYLQMNMLKPEDTAIYYCAAGRFAGRDTWPSSYDYWGQGTQVTVSSGSGSGSDSEVNQEAKPEVKPEVKPETHINLKVSDGSSEIFFKIKKTTPLRRLMEAFAKRQGKEMDSLRFLYDGIRIQADQTPEDLDMEDNDIIEAHREQIGSGSGSQVQLVESGGGLVKTGGSLRLSCAASGRTFSTYSMGWFRQAPGKEREFVAGMRWTGSSTFYSDSVKGRFTVSRNNAKDTVYLHMNSLKPEDTAVYYCAITTIVRAYYTEYTEADFGSWGQGTQVTVS :: 4.1
3) F2-SUMO-C5-Fc (Fc fusion, also called F2-GSGSGS-SUMO-GSGSGS-C5) QVQLVESGGGLVQAGGSLRLACIASGRTFHSYVMAWFRQAPGKEREFVAAISWSSTPTYYGESVKGRFTISRDNAKNTVYLQMNRLKPEDTAVYFCAADRGESYYYTRPTEYEFWGQGTQVTVSSGSGSGSDSEVNQEAKPEVKPEVKPETHINLKVSDGSSEIFFKIKKTTPLRRLMEAFAKRQGKEMDSLRFLYDGIRIQADQTPEDLDMEDNDIIEAHREQIGSGSGSQVQLVESGGGSVQAGGSLTLSCVASGVTLGRHAIGWFRQAPGKERERVSCIRTFDGITSYVESTKGRFTISSNNAMNTVYLQMNSLKPEDTAVYFCALGVTAACSDNPYFWGQGTQVTVSS :: 11

Consider the additional binder presented here.
[in] Dear colleague, please send me the reported T1/2 for C1-SUMO-C5-Fc (Fc fusion, also called C1-GSGSGS-SUMO-GSGSGS-C5) QVQLVESGGGLVQPGGSLRLSCAASGFTNDFYSIAWFRQAPGKEREGVSWLSVSDNTPTYVDSVKDRFTISRHNANNTVYLQMNMLKPEDTAIYYCAAGRFAGRDTWPSSYDYWGQGTQVTVSSGSGSGSDSEVNQEAKPEVKPEVKPETHINLKVSDGSSEIFFKIKKTTPLRRLMEAFAKRQGKEMDSLRFLYDGIRIQADQTPEDLDMEDNDIIEAHREQIGSGSGSQVQLVESGGGSVQAGGSLTLSCVASGVTLGRHAIGWFRQAPGKERERVSCIRTFDGITSYVESTKGRFTISSNNAMNTVYLQMNSLKPEDTAVYFCALGVTAACSDNPYFWGQGTQVTVSS when you can.
[out] 246
